- System: PPARg:RXRa 270nM:90nM, anti-RXR (NR concentration 270 nM, RXRa partner concentration 90 nM)
- MEASUREMENT_DESCRIPTION: PBM binding z-score (relative to random genomic background probes); higher = stronger binding; sequences stand for … in GC…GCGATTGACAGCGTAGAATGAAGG
// F strictly below 2 in PBM binding z-score; T otherwise

Recorded results for 5 sequences are shown here.
- CGGCAAAGTTCAACTAAGGTAACGTAAAGCACGC: T
- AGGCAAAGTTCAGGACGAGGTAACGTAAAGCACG: T
- ACAGACAGGTGAGTGAAGGTAACTCATCTGGACG: F
- CCGACTGGTGCAAAGGTTACCATACTCAGTACGA: T
- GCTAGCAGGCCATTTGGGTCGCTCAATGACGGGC: F

[ask] Does PBM binding z-score meet or surpass 2 for AGTTAAAGTTCACTAGGTAACGTAAGATTCAGCT ?
[reply] T

[ask] Is it the case that ACGAGTTGGTCAGCTGAGGTCACACACAATTCGG has PBM binding z-score reaching or exceeding 2?
[reply] T

[ask] Is the recorded value of PBM binding z-score equal to or greater than 2 for this sequence? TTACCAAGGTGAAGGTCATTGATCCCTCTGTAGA
[reply] T

[ask] Tell me whether PBM binding z-score is at least 2 here: CTCGAAAGGTCGTGCTCAGGCGAGTATACCAAAC
[reply] T

[ask] Decide: PBM binding z-score of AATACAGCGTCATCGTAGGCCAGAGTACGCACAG >= 2?
[reply] F

[ask] # bool: PBM binding z-score of TAGCCTAGGTCATTGGGCCAGTCTAGTACGCATC >= 2
[reply] T

[ask] Reported PBM binding z-score at or above 2? CGTCCAAGCTCAAGGTCAGTGAAAGAGACTCGAA
[reply] F

[ask] Quick check: does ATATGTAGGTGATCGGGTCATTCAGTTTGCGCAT have PBM binding z-score greater than or equal to 2?
[reply] T

[ask] In plain terms: is recorded PBM binding z-score at least 2 for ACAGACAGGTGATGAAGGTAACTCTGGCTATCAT ?
[reply] F

[ask] Reported PBM binding z-score reaches at least 2 for CAGCCTAGGCCAGGGCCAGTATAGGAGGAACGTT ?
[reply] F

---

- System: PPARg:RXRa DBDmut IVT, anti-RXR (DBD mutation: RXRa K156A/R161A, NR concentration 270 nM, RXRa partner concentration 90 nM)
- MEASUREMENT_DESCRIPTION: PBM binding z-score (relative to random genomic background probes); higher = stronger binding; sequences stand for … in GC…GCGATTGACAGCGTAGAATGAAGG
ASSAY_READOUT: PBM binding z-score

Reference set (2 entries):
- CAAACTAGGTCACGAAAGGTCAAAGTCGAATGAC: 8.54
- ATCTCTAGGTAACAAGTTCAGTGACAGAGAGGAC: 3.59

[ask] Please supply the value of reported PBM binding z-score for the item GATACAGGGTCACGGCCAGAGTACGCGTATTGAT
[reply] 4.17

[ask] Query PBM binding z-score for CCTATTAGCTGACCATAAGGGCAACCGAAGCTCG
[reply] 0.163

[ask] Respond only with PBM binding z-score recorded for CGAACGAGAGCATGAGTTGATAGCAAATGCCGAT
[reply] -0.221

[ask] Identify PBM binding z-score associated with the sequence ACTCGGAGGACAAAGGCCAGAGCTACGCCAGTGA
[reply] -0.0476
